system: KRAS PDC multicell spheroid viability; test: Anticancer human tumor 825966-067-R-J1-PDC patient-derived colon carcinoma cell line growth inhibition [KRAS2]; conditions: second compound 10 µM; first compound 0.316 µM; hits give low values
Measure name: viability, T/C

Look over these answered cases.
{"Compound": "CCN1CCN(Cc2ccc(Nc3ncc(F)c(-c4cc(F)c5nc(C)n(C(C)C)c5c4)n3)nc2)CC1 + CNCc1ccccc1-c1csc(C(C)Nc2nc(C)nc3cc(OC)c(OC)cc23)c1", "Result": "0.15%"}
{"Compound": "Cn1nccc1Nc1nccc(-c2cc3c(s2)C(C)(C)N(CCN2CCOCC2)C3=O)n1 + COc1cc2nc(C)nc(NC(C)c3cc(N)cc(C(F)(F)F)c3)c2cc1OC1CCOC1", "Result": "2.05%"}
{"Compound": "CC1COCCN1c1cc(-c2ccnn2C)c2ccnc(-c3ccn[nH]3)c2n1 (stereo unspecified) + COc1cc2nc(C)nc(NC(C)c3cc(N)cc(C(F)(F)F)c3)c2cc1OC1CCOC1", "Result": "3.93%"}
{"Compound": "COC(=O)c1ccc2c(C(=Nc3ccc(N(C)C(=O)CN4CCN(C)CC4)cc3)c3ccccc3)c(O)[nH]c2c1 + CC1OCC2(CCN(c3cnc(Sc4ccnc(N)c4Cl)c(N)n3)CC2)C1N", "Result": "5.99%"}

q: Entry CC(C)NCC(C(=O)N1CCN(c2ncnc3c2C(C)CC3O)CC1)c1ccc(Cl)cc1 (stereo unspecified) + CC1OCC2(CCN(c3cnc(Sc4ccnc(N)c4Cl)c(N)n3)CC2)C1N : reported viability, T/C = ?
a: 21.9%

q: Entry CC1COCCN1c1cc(-c2ccnn2C)c2ccnc(-c3ccn[nH]3)c2n1 (stereo unspecified) + CNCc1ccccc1-c1csc(C(C)Nc2nc(C)nc3cc(OC)c(OC)cc23)c1 : reported viability, T/C = ?
a: 0.52%

q: Entry CC1(C)CCC(CN2CCN(c3ccc(C(=O)NS(=O)(=O)c4ccc(NCC5CCOCC5)c([N+](=O)[O-])c4)c(Oc4cnc5[nH]ccc5c4)c3)CC2)=C(c2ccc(Cl)cc2)C1 + CNCc1ccccc1-c1csc(C(C)Nc2nc(C)nc3cc(OC)c(OC)cc23)c1 : reported viability, T/C = ?
a: 1.83%

###

tested on: KRAS PDC multicell spheroid viability; assay: Anticancer human tumor 825966-067-R-J1-PDC cell line growth inhibition [KRAS2]; conditions: second compound 1 µM; first compound 0.001 µM; hits give low values;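 also: spheroids exposed to compounds for 7 days; 100% = DMSO vehicle control viability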
Let's look at some compounds and their measured viability, T/C.
Give the value in % but do not write % after it.

Look over these answered cases.
{"Compound": "CC(C)n1nc(-c2ccc3oc(N)nc3c2)c2c(N)ncnc21 + CNCc1ccccc1-c1csc(C(C)Nc2nc(C)nc3cc(OC)c(OC)cc23)c1", "Measure name": "viability, T/C", "Quantitative result": 135}
{"Compound": "CC(=O)Nc1cccc(-n2c(=O)n(C3CC3)c(=O)c3c(Nc4ccc(I)cc4F)n(C)c(=O)c(C)c32)c1 + C=CC(=O)N1CCN(c2nc(=O)n(-c3c(C)ccnc3C(C)C)c3nc(-c4c(O)cccc4F)c(F)cc23)C(C)C1", "Measure name": "viability, T/C", "Quantitative result": 99.8}
{"Compound": "CN(C)C/C=C/C(=O)Nc1cc2c(Nc3ccc(F)c(Cl)c3)ncnc2cc1O[C@H]1CCOC1 + C=CC(=O)N1CCN(c2nc(=O)n(-c3c(C)ccnc3C(C)C)c3nc(-c4c(O)cccc4F)c(F)cc23)C(C)C1", "Measure name": "viability, T/C", "Quantitative result": 101}
{"Compound": "CC(C)n1nc(-c2ccc3oc(N)nc3c2)c2c(N)ncnc21 + C=CC(=O)N1CCN(c2nc(=O)n(-c3c(C)ccnc3C(C)C)c3nc(-c4c(O)cccc4F)c(F)cc23)C(C)C1", "Measure name": "viability, T/C", "Quantitative result": 102}
{"Compound": "Cn1ncnc1[C@H]1c2n[nH]c(=O)c3cc(F)cc(c23)N[C@@H]1c1ccc(F)cc1 + C=CC(=O)N1CCN(c2nc(=O)n(-c3c(C)ccnc3C(C)C)c3nc(-c4c(O)cccc4F)c(F)cc23)C(C)C1", "Measure name": "viability, T/C", "Quantitative result": 91.7}

q: Entry CN(C)C/C=C/C(=O)Nc1cc2c(Nc3ccc(F)c(Cl)c3)ncnc2cc1O[C@H]1CCOC1 + C=CC(=O)N1CCN(c2nc(OCC3CCCN3C)nc3c2CCN(c2cccc4cccc(C)c24)C3)CC1CC#N : reported viability, T/C = ?
a: 84.9

q: Entry Cn1ncnc1[C@H]1c2n[nH]c(=O)c3cc(F)cc(c23)N[C@@H]1c1ccc(F)cc1 + CC1OCC2(CCN(c3cnc(Sc4ccnc(N)c4Cl)c(N)n3)CC2)C1N : reported viability, T/C = ?
a: 109

q: Entry Cn1ncnc1[C@H]1c2n[nH]c(=O)c3cc(F)cc(c23)N[C@@H]1c1ccc(F)cc1 + C=CC(=O)N1CCN(c2nc(OCC3CCCN3C)nc3c2CCN(c2cccc4cccc(C)c24)C3)CC1CC#N : reported viability, T/C = ?
a: 103

q: Entry Cn1ncnc1[C@H]1c2n[nH]c(=O)c3cc(F)cc(c23)N[C@@H]1c1ccc(F)cc1 + COc1cc2nc(C)nc(NC(C)c3cc(N)cc(C(F)(F)F)c3)c2cc1OC1CCOC1 : reported viability, T/C = ?
a: 99.4

q: Entry CC(C)n1nc(-c2ccc3oc(N)nc3c2)c2c(N)ncnc21 + CC1OCC2(CCN(c3cnc(Sc4ccnc(N)c4Cl)c(N)n3)CC2)C1N : reported viability, T/C = ?
a: 111

q: Entry CC(=O)Nc1cccc(-n2c(=O)n(C3CC3)c(=O)c3c(Nc4ccc(I)cc4F)n(C)c(=O)c(C)c32)c1 + COc1cc2nc(C)nc(NC(C)c3cc(N)cc(C(F)(F)F)c3)c2cc1OC1CCOC1 : reported viability, T/C = ?
a: 113

###

test system: KRAS PDC multicell spheroid viability; experiment: Anticancer human tumor 825966-067-R-J1-PDC cell line growth inhibition [KRAS2]; conditions: second compound 0.1 µM; first compound 3.16 µM; hits give low values;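 also: spheroids exposed to compounds for 7 days; 100% = DMSO vehicle control viability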
Measure name: viability, T/C (%)
Give the value in % but do not write % after it.

{"Compound": "COc1cc2nccc(Oc3ccc(NC(=O)C4(C(=O)Nc5ccc(F)cc5)CC4)cc3)c2cc1OC + C=CC(=O)N1CCN(c2nc(OCC3CCCN3C)nc3c2CCN(c2cccc4cccc(C)c24)C3)CC1CC#N", "Measure name": "viability, T/C", "Quantitative result": 15.3}
{"Compound": "CC(C)NCC(C(=O)N1CCN(c2ncnc3c2C(C)CC3O)CC1)c1ccc(Cl)cc1 (stereo not given) + C=CC(=O)N1CCN(c2nc(=O)n(-c3c(C)ccnc3C(C)C)c3nc(-c4c(O)cccc4F)c(F)cc23)C(C)C1", "Measure name": "viability, T/C", "Quantitative result": 35.2}
{"Compound": "Cn1nccc1Nc1nccc(-c2cc3c(s2)C(C)(C)N(CCN2CCOCC2)C3=O)n1 + C=CC(=O)N1CCN(c2nc(OCC3CCCN3C)nc3c2CCN(c2cccc4cccc(C)c24)C3)CC1CC#N", "Measure name": "viability, T/C", "Quantitative result": 73.4}
{"Compound": "COc1cc(Nc2ncc3c(n2)-c2ccc(Cl)cc2C(c2c(F)cccc2OC)=NC3)ccc1C(=O)O + COc1cc2nc(C)nc(NC(C)c3cc(N)cc(C(F)(F)F)c3)c2cc1OC1CCOC1", "Measure name": "viability, T/C", "Quantitative result": 136}

Proceed to the following item.
q: Entry CC1(C)CCC(CN2CCN(c3ccc(C(=O)NS(=O)(=O)c4ccc(NCC5CCOCC5)c([N+](=O)[O-])c4)c(Oc4cnc5[nH]ccc5c4)c3)CC2)=C(c2ccc(Cl)cc2)C1 + COc1cc2nc(C)nc(NC(C)c3cc(N)cc(C(F)(F)F)c3)c2cc1OC1CCOC1 : reported viability, T/C = ?
a: 21.4

###

system: KRAS PDC multicell spheroid viability; experiment: Anticancer human tumor 825966-067-R-J1-PDC cell line growth inhibition [KRAS2]; settings: second compound 10 µM; first compound 10 µM; hits give low values;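 also: spheroids exposed to compounds for 7 days; 100% = DMSO vehicle control viability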
Measure name: viability, T/C (%)
Give the value in % but do not write % after it.

{"Molecule": "Cn1nccc1Nc1nccc(-c2cc3c(s2)C(C)(C)N(CCN2CCOCC2)C3=O)n1 + COc1cc2nc(C)nc(NC(C)c3cc(N)cc(C(F)(F)F)c3)c2cc1OC1CCOC1", "Measurement target": "KRAS PDC multicell spheroid viability", "Measure name": "viability, T/C", "Quantitative result": 0.87}
{"Molecule": "CCNC(=O)CC1N=C(c2ccc(Cl)cc2)c2cc(OC)ccc2-n2c(C)nnc21 (stereo not given) + CNCc1ccccc1-c1csc(C(C)Nc2nc(C)nc3cc(OC)c(OC)cc23)c1", "Measurement target": "KRAS PDC multicell spheroid viability", "Measure name": "viability, T/C", "Quantitative result": 0.37}
{"Molecule": "CC1(C)CCC(CN2CCN(c3ccc(C(=O)NS(=O)(=O)c4ccc(NCC5CCOCC5)c([N+](=O)[O-])c4)c(Oc4cnc5[nH]ccc5c4)c3)CC2)=C(c2ccc(Cl)cc2)C1 + CC1OCC2(CCN(c3cnc(Sc4ccnc(N)c4Cl)c(N)n3)CC2)C1N", "Measurement target": "KRAS PDC multicell spheroid viability", "Measure name": "viability, T/C", "Quantitative result": 2}
{"Molecule": "O=C(c1cc(Cc2n[nH]c(=O)c3ccccc23)ccc1F)N1CCN(C(=O)C2CC2)CC1 + CNCc1ccccc1-c1csc(C(C)Nc2nc(C)nc3cc(OC)c(OC)cc23)c1", "Measurement target": "KRAS PDC multicell spheroid viability", "Measure name": "viability, T/C", "Quantitative result": 0.27}

Proceed to the following item.
q: Entry CC(C)NCC(C(=O)N1CCN(c2ncnc3c2C(C)CC3O)CC1)c1ccc(Cl)cc1 (stereo not given) + CC1OCC2(CCN(c3cnc(Sc4ccnc(N)c4Cl)c(N)n3)CC2)C1N : reported viability, T/C = ?
a: 4.31

All figures here come from PubChem BioAssay AID1963865.
